biological target: Ribosomal RNA A-site; test: Dissociation constant against 16S rRNA A-site
Assay Endpoint: Kd (µM)

COc1ccc(CO[C@H]2C(N)C[C@@H](N)[C@@H](O)C2OCCNCCCN)cc1 (stereo not given in full) ... 10
NCCCNCCOC1[C@@H](OCSc2ccnc3cc(C(F)(F)F)ccc23)C(N)C[C@@H](N)[C@H]1O (stereo not given in full) ... 2
NCCCNCCO[C@H]1C(O)[C@@H](OCSc2ccnc3cc(C(F)(F)F)ccc23)C(N)C[C@H]1N (stereo not given in full) ... 1.5
NC[C@@H]1O[C@H](O[C@H]2[C@@H](O)[C@H](O[C@@H]3[C@@H](O)[C@H](N)C[C@H](N)[C@H]3O[C@H]3O[C@H](CO)[C@@H](O)[C@H](O)[C@H]3N)O[C@@H]2CO)[C@H](N)[C@@H](O)[C@@H]1O ... 0.1
COc1ccc(CO[C@H]2C(N)C[C@@H](N)[C@@H](O)C2O)cc1 (stereo not given in full) ... 315

(1) COc1ccc(CO[C@H]2C(N)C[C@@H](N)[C@@H](OCCNCCCN)C2O)cc1 (stereo not given in full)
(2) CN(C)CCCNC(=O)COC1[C@@H](OCSc2ccnc3cc(C(F)(F)F)ccc23)C(N)C[C@@H](N)[C@H]1O (stereo not given in full)
(3) CN(C)CCCNC(=O)CO[C@H]1C(O)[C@@H](OCSc2ccnc3cc(C(F)(F)F)ccc23)C(N)C[C@H]1N (stereo not given in full)
Rank entries according to their Kd, from the largest number down. # respond with the labels, arranged in the requested order
3, 2, 1
